meta.source: patent US20240182536A1

Target: T1, human IL-18 binding protein (human, UniProt O95998 31-194); note: unit not given here
T1 sequence (looked up): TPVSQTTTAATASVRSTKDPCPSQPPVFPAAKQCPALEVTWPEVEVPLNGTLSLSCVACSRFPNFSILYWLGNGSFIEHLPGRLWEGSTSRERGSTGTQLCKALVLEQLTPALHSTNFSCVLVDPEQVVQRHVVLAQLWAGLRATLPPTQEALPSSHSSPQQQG
Test: cell-based or functional assay
endpoint_label: HEK-Blue activity, +100 nM BP, DF-100,000
Numbers only.

Sample records with HEK-Blue activity, +100 nM BP, DF-100,000:
binder	data_value
yeast display IL-18 variant K53T, S55M, R58K (ligand) YFGKLESKLSVIRNLNDQVLFIDQGNRPLFEDMTDSDMRDNAPRTIFIISMYTDMQPKGMAVTISVKSEKISTLSSENKIISFKEMNPPDNIKDTKSDIIFFQRSVPGHDNKMQFESSSYEGYFLASEKERDLFKLILKKEDELGDRSIMFTVQNED	0.21
yeast display IL-18 variant K53G, S55I (ligand) YFGKLESKLSVIRNLNDQVLFIDQGNRPLFEDMTDSDMRDNAPRTIFIISMYGDIQPRGMAVTISVKSEKISTLSSENKIISFKEMNPPDNIKDTKSDIIFFQRSVPGHDNKMQFESSSYEGYFLASEKERDLFKLILKKEDELGDRSIMFTVQNED	0.19
yeast display IL-18 variant K53Y, S55Y (ligand) YFGKLESKLSVIRNLNDQVLFIDQGNRPLFEDMTDSDMRDNAPRTIFIISMYYDYQPRGMAVTISVKSEKISTLSSENKIISFKEMNPPDNIKDTKSDIIFFQRSVPGHDNKMQFESSSYEGYFLASEKERDLFKLILKKEDELGDRSIMFTVQNED	0.14

Next item in the queue.
## Task Give the measured HEK-Blue activity, +100 nM BP, DF-100,000 of yeast display IL-18 variant K53N, S55I (ligand) YFGKLESKLSVIRNLNDQVLFIDQGNRPLFEDMTDSDMRDNAPRTIFIISMYNDIQPRGMAVTISVKSEKISTLSSENKIISFKEMNPPDNIKDTKSDIIFFQRSVPGHDNKMQFESSSYEGYFLASEKERDLFKLILKKEDELGDRSIMFTVQNED .
## Result 0.11
